experiment: Pharmacokinetic study, 3 mg/kg IV, 10 mg/kg PO and 10 mg/kg PO QD*3, plasma, liver and bone; type: in vivo, mouse; conditions: female, C57BL/6J, mouse, liver, po, 10 mg/kg, liver, PO (QD*3), 1 h, individual animals; read-out: Liver 6641 PO (QD*3) concentration

| compound | display-unit | concentration at 1 h |
| --- | --- | --- |
| O=C1Nc2ccc(-c3cc(C(F)(F)F)cc(C(F)(F)F)c3)cc2C(=O)N2CCN(C(=O)COc3ccc(OC(F)(F)F)cc3I)C[C@@H]12 [compound 6641] | ng/g | 3320 |

====

assay: Pharmacokinetic study, 3 mg/kg IV, 10 mg/kg PO and 10 mg/kg PO QD*3, plasma, liver and bone; format: in vivo, mouse; details: female, C57BL/6J, mouse, bone (long bones), iv, 3 mg/kg, bone, IV, 1 h, individual animals; read-out: Bone 6641 IV concentration

| query-smiles | concentration at 1 h / ng/g |
| --- | --- |
| O=C1Nc2ccc(-c3cc(C(F)(F)F)cc(C(F)(F)F)c3)cc2C(=O)N2CCN(C(=O)COc3ccc(OC(F)(F)F)cc3I)C[C@@H]12 | 632 |

Measured values drawn from paper PMC9636434 for this set.
